TEST TARGET: TIP60-KAT5 (Homo sapiens)
Construct: encoding amino acid residues 2 to 461 (Uniprot Q92993-2) of human KAT5 isoform; made in house; host or cells: E. coli BL21 DE3
Sequence (Q92993 2-461 isoform Q92993-2): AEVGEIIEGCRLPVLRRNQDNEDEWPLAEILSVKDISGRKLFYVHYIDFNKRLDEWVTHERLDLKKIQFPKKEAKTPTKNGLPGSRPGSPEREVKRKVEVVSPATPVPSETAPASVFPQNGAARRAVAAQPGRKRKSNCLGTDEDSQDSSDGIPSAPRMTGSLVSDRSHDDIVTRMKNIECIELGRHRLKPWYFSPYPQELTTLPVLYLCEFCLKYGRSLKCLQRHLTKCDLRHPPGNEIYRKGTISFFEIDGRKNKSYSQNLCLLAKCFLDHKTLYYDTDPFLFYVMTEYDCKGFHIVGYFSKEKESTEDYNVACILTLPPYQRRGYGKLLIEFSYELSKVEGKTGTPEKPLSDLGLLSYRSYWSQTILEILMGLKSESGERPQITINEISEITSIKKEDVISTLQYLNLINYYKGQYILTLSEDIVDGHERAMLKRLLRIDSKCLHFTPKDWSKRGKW
ASSAY EXPLANATION: Revised Acetyltransferase Biochemical Assay, KAT5
CONDITION NOTES: 10 nM KAT5, 1 μM AcCoA, 100 nM histone H4, 90 min
Label met when IC50 is strictly below 400 nM; otherwise label not met.

MOLECULE: O=C(NCC(c1ccccc1)c1ncco1)C1=Nc2ccc(I)cc2S(=O)(=O)N1 (single isomer, unassigned) [Example 147]
CAT: met
//
MOLECULE: CC(O)c1ccc2c(c1)S(=O)(=O)NC(C(=O)NCC(c1ccccc1)c1ncco1)=N2 (stereo not shown) [Example 212]
CAT: not met
//
MOLECULE: O=C(NCC(c1ncco1)c1ccccc1-c1ccccc1)C1=Nc2ccccc2S(=O)(=O)N1 (stereo not shown) [Example 161]
CAT: not met
//
MOLECULE: CC(CNC(=O)C1=Nc2ccccc2S(=O)(=O)N1)(c1ccccc1)c1ccccc1 [Example 206]
CAT: not met

Just wondering, is IC50 of COc1cccc(C(CNC(=O)C2=Nc3ccc(I)cc3S(=O)(=O)N2)c2ncco2)c1 (stereo not shown) [Example 187] below 400 nM?
met

Hello, I'm reviewing records and need to know if IC50 of O=C(NCC(c1ccccc1)c1ncco1)C1=Nc2ccc(Br)cc2S(=O)(=O)N1 (single isomer, unassigned) [Example 139] is below 400 nM. Could you check?
not met
